system: ATP; experiment: switch fluorescence ratio, 500 uM ATP over buffer (Cy3 cluster intensity, sum of 5 cycles each) (fold (ratio)); higher = stronger signal-on switching upon ATP binding; sequences stand for … in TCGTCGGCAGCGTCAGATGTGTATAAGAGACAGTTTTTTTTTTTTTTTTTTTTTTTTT…TC; details: aptamer strand: ATP DNA aptamer (quencher-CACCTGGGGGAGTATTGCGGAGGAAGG + anchor), 100 nM annealed; ATP concentration: 500 uM;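 note: ATP exposure 15 min at 22 °C before imaging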
Outcome label depends on switch fluorescence ratio relative to 1: at/above gives true, below gives false.

Before answering, review these 5 worked examples.
| Item sequence | Class name |
| --- | --- |
| CGTTCGATAT | true |
| TTTGATTTGG | false |
| CGTGCGGCTG | true |
| CGGAAGCTAA | true |
| TATGGGGCAA | true |

Below: the item to evaluate.
Task: Does `CGTCTTACGT` have a reported switch fluorescence ratio of at least 1?
Result: true

---

system: ATP; assay: switch fluorescence ratio, 500 uM ATP over buffer (Cy3 cluster intensity, sum of 5 cycles each) (fold (ratio)); higher = stronger signal-on switching upon ATP binding; sequences stand for … in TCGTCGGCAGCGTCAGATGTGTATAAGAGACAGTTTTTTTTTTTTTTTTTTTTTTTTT…TC; conditions: aptamer strand: ATP DNA aptamer (quencher-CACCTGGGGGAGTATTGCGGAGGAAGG + anchor), 100 nM annealed; ATP concentration: 500 uM;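 note: ATP exposure 15 min at 22 °C before imaging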
Outcome label depends on switch fluorescence ratio relative to 1: at/above gives rule met, below gives rule not met.

Before answering, review these 2 worked examples.
| Item sequence | Class name |
| --- | --- |
| TTTGGCATCA | rule met |
| CGCTTATACG | rule met |

Task: Does `TGTGTCCTAA` have a reported switch fluorescence ratio of at least 1?
Result: rule met

Task: Does `CGGCCAGGGG` have a reported switch fluorescence ratio of at least 1?
Result: rule met

Task: Does `GGGAAATGTT` have a reported switch fluorescence ratio of at least 1?
Result: rule met

Task: Does `TAGGCAGGGC` have a reported switch fluorescence ratio of at least 1?
Result: rule met

---

Hi there, I'd appreciate the recorded switch fluorescence ratio for every entry that follows.
test system: ATP; test: switch fluorescence ratio, 500 uM ATP over buffer (Cy3 cluster intensity, sum of 5 cycles each) (fold (ratio)); higher = stronger signal-on switching upon ATP binding; sequences stand for … in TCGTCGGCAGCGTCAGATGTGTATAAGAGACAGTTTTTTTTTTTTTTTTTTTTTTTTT…TC; settings: aptamer strand: ATP DNA aptamer (quencher-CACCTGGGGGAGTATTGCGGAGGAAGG + anchor), 100 nM annealed; ATP concentration: 500 uM;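 note: ATP exposure 15 min at 22 °C before imaging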
Give bare numbers.

As a guide, the following entries are already answered.
| Item sequence | switch fluorescence ratio |
| --- | --- |
| TGAGGATGGG | 0.975 |
| TTGCCTGTTT | 0.967 |
| ACCTCATTAA | 1.03 |
| CGGGGGGGTG | 1.03 |
| TTGTGGAAAT | 1 |
| GCCCCAGGGG | 4.81 |

Please give switch fluorescence ratio, item by item, for the list that follows.
1. TCGTTATGGA
2. CGGGTTATGG
3. ATCGATATAT

Result:
1. 0.987
2. 0.981
3. 0.991

Please give switch fluorescence ratio, item by item, for the list that follows.
1. CAGTTAAAGG
2. GGGGGTTAGT

Result:
1: 1.01; 2: 1.01

Please give switch fluorescence ratio, item by item, for the list that follows.
1. CGGGCCACGA
2. TGATAAATTT
3. TGTTACTAGC
4. CAACGGGCCA
5. GCACACCAGT

Result:
1. 1.04
2. 1.01
3. 1.03
4. 1.01
5. 1.04

---

system: ATP; assay: switch fluorescence ratio, 500 uM ATP over buffer (Cy3 cluster intensity, sum of 5 cycles each) (fold (ratio)); higher = stronger signal-on switching upon ATP binding; sequences stand for … in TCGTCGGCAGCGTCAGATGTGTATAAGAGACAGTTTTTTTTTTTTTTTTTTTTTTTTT…TC; conditions: aptamer strand: ATP DNA aptamer (quencher-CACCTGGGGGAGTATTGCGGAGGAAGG + anchor), 100 nM annealed; ATP concentration: 500 uM;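 note: ATP exposure 15 min at 22 °C before imaging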
Readout: switch fluorescence ratio
Answers are plain numbers.

| Item sequence | Result number |
| --- | --- |
| AGTAGGGGCG | 1.03 |

Please give switch fluorescence ratio, item by item, for the list that follows.
1. GAGGGGACTT
2. GGACCTGGCG
3. CCCGTGGAAA
4. TTCTTTGAAT
5. GGCACGTGGG
6. TAAATCGGGT
7. TTAATGGCTA

Result:
1.09
1.08
1.09
1.04
0.999
1
0.976

Please give switch fluorescence ratio, item by item, for the list that follows.
1. AAAAGGATCT
2. GTGTGCTTTG

Result:
1. 1.02
2. 0.998

Please give switch fluorescence ratio, item by item, for the list that follows.
1. CTGATGCGGG
2. TTGGGTTTAT
3. CAAGATTCTT
4. GCCGCAGACA
5. ATTAGGGGAT
6. GGCCCGGGGC

Result:
1. 1.06
2. 0.999
3. 0.975
4. 1.39
5. 1.01
6. 0.995

---

tested on: ATP; assay: switch fluorescence ratio, 500 uM ATP over buffer (Cy3 cluster intensity, sum of 5 cycles each) (fold (ratio)); higher = stronger signal-on switching upon ATP binding; sequences stand for … in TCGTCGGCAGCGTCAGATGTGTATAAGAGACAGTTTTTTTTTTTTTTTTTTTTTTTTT…TC; settings: aptamer strand: ATP DNA aptamer (quencher-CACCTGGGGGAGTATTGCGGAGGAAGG + anchor), 100 nM annealed; ATP concentration: 500 uM;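 note: ATP exposure 15 min at 22 °C before imaging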
Readout: switch fluorescence ratio

| Item sequence | switch fluorescence ratio |
| --- | --- |
| GATGGTTAGT | 0.974 |
| ACATATCTTT | 1.03 |
| TATTACTCGT | 1.01 |

Please give switch fluorescence ratio, item by item, for the list that follows.
1. CGATACCGTG
2. GTTTTAAGCT
3. ATCTCGGGCT
4. AGGGTGGGGT
5. CCTTGATCTG
6. AGGAGCCTTT

Result:
1. 1.01
2. 1.02
3. 0.973
4. 0.977
5. 1.06
6. 0.993

Value of switch fluorescence ratio reported for the sequence `CTTAGGGGGA` is 1

---

tested on: ATP; assay: switch fluorescence ratio, 500 uM ATP over buffer (Cy3 cluster intensity, sum of 5 cycles each) (fold (ratio)); higher = stronger signal-on switching upon ATP binding; sequences stand for … in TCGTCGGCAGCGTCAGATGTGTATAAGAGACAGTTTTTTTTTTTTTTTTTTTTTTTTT…TC; conditions: aptamer strand: ATP DNA aptamer (quencher-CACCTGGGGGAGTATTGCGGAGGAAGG + anchor), 100 nM annealed; ATP concentration: 500 uM;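 note: ATP exposure 15 min at 22 °C before imaging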
Readout: switch fluorescence ratio
One number for each entry.

As a guide, the following entries are already answered.
| Item sequence | switch fluorescence ratio |
| --- | --- |
| ATCATTAGAA | 0.976 |
| TAGTCGTTAG | 1 |
| AAATGGGGGT | 0.975 |

Let's switch to this sequence now.
Value of switch fluorescence ratio reported for the sequence `AAGCTTTCGG` is 1.03

---

Hi there, I'd appreciate the recorded switch fluorescence ratio for every entry that follows.
test system: ATP; assay: switch fluorescence ratio, 500 uM ATP over buffer (Cy3 cluster intensity, sum of 5 cycles each) (fold (ratio)); higher = stronger signal-on switching upon ATP binding; sequences stand for … in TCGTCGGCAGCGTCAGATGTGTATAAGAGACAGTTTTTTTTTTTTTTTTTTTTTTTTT…TC; details: aptamer strand: ATP DNA aptamer (quencher-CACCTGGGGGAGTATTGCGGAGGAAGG + anchor), 100 nM annealed; ATP concentration: 500 uM;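 note: ATP exposure 15 min at 22 °C before imaging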
One number for each entry.

| Item sequence | switch fluorescence ratio |
| --- | --- |
| TCGTTCAGGA | 0.995 |

Please give switch fluorescence ratio, item by item, for the list that follows.
1. TTGGAAGTTC
2. TAAGCAGGGC

Result:
[1, 1.07]

Please give switch fluorescence ratio, item by item, for the list that follows.
1. GATGGGTTTG
2. TGGGTTATCG
3. GGTAATTGGG
4. TACCGTAAAC
5. TTGGCGGGGT
6. TGAGGGATGA
7. CCATTTAGTT

Result:
0.991
0.998
1.19
1.8
1.04
1.03
1.09

Please give switch fluorescence ratio, item by item, for the list that follows.
1. CATGGGACGT
2. GGATTTCCAG
3. AATGTAAAAC
4. TGTAGTATTT
5. AGGGATTTTT
6. AGTGTACTAG
7. CCAATGAGGT

Result:
0.988
0.999
1.06
1
0.999
1.04
0.996

Please give switch fluorescence ratio, item by item, for the list that follows.
1. GAAAATGAAG
2. TACGTGGGTG
3. AGAGGTCTTG
4. CCCGAGGGTT
5. TCTAACTTTT
6. TCTGGGAAAA
7. ATTTGACTTT
8. GACTTAAGGC

Result:
[1.01, 1.05, 0.979, 1.01, 1.01, 0.918, 1.04, 1.01]
